Item-by-item account of %Inh
Test system: TRKC
Construct: gene NTRK3
Details: concentration: 1 μM, replicates: in singlicate; n = 1;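 note: KINOMEscan kinase panel screen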
Use % as the unit, but write only the number.

Exercise: Entry under review: COc1cc2ncn(-c3cc(OCC4CCCO4)c(C(N)=O)s3)c2cc1OC (stereo not drawn) . Reported %Inh?
Solution: 0

Exercise: Entry under review: "Cc1ccc(NC(=O)Nc2cccc(Cl)c2)cc1-c1ccc(C(=O)Nc2ccncc2)cc1" . Reported %Inh?
Solution: 6

Exercise: Entry under review: "Cc1ccc(C(=O)Nc2ccc(Nc3ccnc4cc(-c5ccccn5)ccc34)cc2O)cc1.Cl" . Reported %Inh?
Solution: 34

Exercise: Entry under review: "Cl.NC(=O)c1cccc(Nc2nccc(Nc3ccc(Oc4cccc(Cl)c4)c(Cl)c3)n2)c1" . Reported %Inh?
Solution: 0

Exercise: Entry under review: "Cn1ccc2ncnc(Oc3cccc(C(=O)Nc4ccccc4)c3)c21" . Reported %Inh?
Solution: 0

Exercise: Entry under review: "COc1ccc(C2=C(Nc3cccc(C(=O)O)c3)C(=O)NC2=O)cc1" . Reported %Inh?
Solution: 22

Exercise: Entry under review: "COc1ccccc1CNC(=O)c1cc(C(=O)c2ccccc2C)c[nH]1" . Reported %Inh?
Solution: 2

Exercise: Entry under review: CCCc1ccc(S(=O)(=O)NC2CCN(c3ccnc(Nc4ccc(F)cc4)n3)C2)cc1 (stereo not drawn) . Reported %Inh?
Solution: 28

Exercise: Entry under review: "Cc1cc(NCC(c2ccccc2)c2ccccc2)nc(NCc2ccc(C(F)(F)F)cc2)n1" . Reported %Inh?
Solution: 7

* * *

Item-by-item account of %Inh
System: NDR1
Construct: gene STK38
Details: concentration: 1 μM, replicates: in singlicate; n = 1
Use % as the unit, but write only the number.

Previously resolved entries follow.
compound=Nc1nc(-c2nccs2)c(-c2ccnc3ccccc23)s1 system_name=NDR1 measured_metric=%Inh test_value=17
compound=NC(=O)c1nnc2ccccc2c1N system_name=NDR1 measured_metric=%Inh test_value=20
compound=Cc1csc(-c2nc(Nc3ccncc3)c3ccccc3n2)n1 system_name=NDR1 measured_metric=%Inh test_value=27
compound="COc1cccc(NC(=O)NC2CCN(c3ccnc(Nc4ccc(F)cc4)n3)C2)c1 (stereo not shown)" system_name=NDR1 measured_metric=%Inh test_value=9

Exercise: Entry under review: "CCn1c(-c2ccccn2)nc2cnccc21" . Reported %Inh?
Solution: 6

Exercise: Entry under review: "Nc1ncnc2[nH]c(-c3ccccc3)nc12" . Reported %Inh?
Solution: 0

Exercise: Entry under review: "Cc1cc(NCC(c2ccccc2)c2ccccc2)nc(NCc2ccc(C(F)(F)F)cc2)n1" . Reported %Inh?
Solution: 10

Exercise: Entry under review: "Cn1ccc2ncnc(Oc3ccc(NC(=O)Nc4ccccc4)cc3)c21" . Reported %Inh?
Solution: 9

Exercise: Entry under review: "CS(=O)(=O)c1ccc(-c2c(-c3ncn[nH]3)sc(N3CCOCC3)c2C#N)cc1" . Reported %Inh?
Solution: 18

Exercise: Entry under review: "Cl.c1ccc(-c2n[nH]cc2-c2ccnc(-c3ccc(CN4CCOCC4)cc3)c2)nc1" . Reported %Inh?
Solution: 14

* * *

Item-by-item account of %Inh
Tested on: PKAC-alpha
Construct: gene PRKACA
Conditions: concentration: 1 μM, replicates: in singlicate; n = 1
Use % as the unit, but write only the number.

Exercise: Requested read-out %Inh, target or system PKAC-alpha, entry "Cl.NC(=O)c1cccc(Nc2nccc(Nc3ccc(Oc4cccc(Cl)c4)c(Cl)c3)n2)c1"
Solution: 0

Values compiled from paper PMC5540273.
